tested on: Staph aureus 1146; experiment: MIC, microtiter broth dilution (CLSI M7-A7), Assay 1, Table 12 column B, no serum; type: cell-based, Staphylococcus aureus; conditions: Staphylococcus aureus, 1146, Staph aureus 1146, Assay 1, no serum
assay-endpoint: MIC

Recorded results for 3 compounds are shown here.
# compound, MIC
rows = [
    ("COCc1noc(C2CC(N3CC[C@@H](CCC(O)c4ccnc5ccc(OC)cc45)[C@@H](C(=O)O)C3)C2)n1 (stereo partly drawn)", "> 64 µg/mL"),
    ("COc1ccc2nccc(C(O)CC[C@@H]3CCN(C4CC(c5ccc(F)cc5)C4)C[C@@H]3C(=O)O)c2c1 (stereo partly drawn)", "0.5 µg/mL"),
    ("COc1ccc2nccc([C@@H](O)CC[C@@H]3CCN(C4CC(c5c(F)cc(F)cc5F)C4)C[C@@H]3C(=O)O)c2c1 (stereo partly drawn)", "0.125 µg/mL"),
]

Input line: Provide MIC, system Staph aureus 1146, entry COc1ccc2nccc([C@@H](O)CC[C@@H]3CCN(C4CC(c5ccccc5)C4)C[C@@H]3c3nn[nH]n3)c2c1 (stereo partly drawn)
Output line: 0.25 µg/mL

Input line: Fill in MIC for COc1ccc2ncc(F)c(C(O)CC[C@@H]3CCN(C4CC(c5cc(F)cc(F)c5)C4)C[C@@H]3C(=O)O)c2n1 (stereo partly drawn) tested with Staph aureus 1146.
Output line: < 0.0625 µg/mL

----------
Reported log10 MIC values follow for various molecules
system: Staph aureus 1146; experiment: MIC, microtiter broth dilution (CLSI M7-A7), Assay 1, Table 12 column B, no serum; format: cell-based, Staphylococcus aureus; details: Staphylococcus aureus, 1146, Staph aureus 1146, Assay 1, no serum
A difference of one corresponds to tenfold MIC; all values are log10 with MIC in µg/mL.

Sample records with log10 MIC:
# molecule, log10 MIC
records = [
    ("COc1ccc2nccc(C(O)CC[C@@H]3CCN(C4CC(c5cc(F)ccc5F)C4)C[C@@H]3C(=O)O)c2c1 (stereo partly shown)", -0.90),
    ("COc1ccc2nccc(C(O)CC[C@@H]3CCN(C4CC(c5cccc(Cl)c5)C4)C[C@@H]3C(=O)O)c2c1 (stereo partly shown)", -0.60),
    ("COc1ccc(C2CC(N3CC[C@@H](CC[C@H](O)c4ccnc5ccc(OC)cc45)[C@@H](C(=O)O)C3)C2)c(F)c1 (stereo partly shown)", 1.51),
    ("COc1ccc2nccc(C(O)CC[C@@H]3CCN(C4CC(c5ccccn5)C4)C[C@@H]3C(=O)O)c2c1 (stereo partly shown)", 0.60),
]

Input line: Return reported log10 MIC. Input molecule: COc1ccc2nccc(CCCC3(C(=O)O)CCN(C4CC(c5ccccc5)C4)CC3)c2c1 (stereo not shown)
Output line: 0.30

Input line: Consider the molecule COc1ccc2nccc(C(O)CC[C@@H]3CCN(C4CC(Cc5cc(F)ccc5F)C4)C[C@@H]3C(=O)O)c2c1 (stereo partly shown) . State its measured log10 MIC.
Output line: 0.30

Input line: Give the reported log10 MIC for this molecule. COc1ccc2nccc(C(O)CC[C@@H]3CCN(C4CC(c5nc(C)no5)C4)C[C@@H]3C(=O)O)c2c1 (stereo partly shown)
Output line: 1.20

Input line: For the molecule COc1ccc2ncc(Cl)c(CCNC3(C(=O)O)CCN(C4CC(c5ccccc5)C4)CC3)c2c1 (stereo not shown) , report log10 MIC.
Output line: -0.30

Input line: Please give measured log10 MIC of the following entry: COc1ccc2nccc(C(O)CC[C@@H]3CCN(C4CC(c5ccccc5F)C4)C[C@@H]3C(=O)O)c2c1 (stereo partly shown)
Output line: -0.90

Input line: Identify measured log10 MIC associated with CCc1noc(C2CC(N3CC[C@@H](CCC(O)c4ccnc5ccc(OC)cc45)[C@@H](C(=O)O)C3)C2)n1 (stereo partly shown)
Output line: 1.81

Input line: Tell me its log10 MIC given COc1ccc2nccc(C(O)CC[C@@H]3CCN(C4CC(c5nc(C(C)(C)C)no5)C4)C[C@@H]3C(=O)O)c2c1 (stereo partly shown) as the entry.
Output line: 1.81

Input line: Indicate its recorded log10 MIC; the molecule in question is COc1ccc2nccc(C(O)CC[C@@H]3CCN(C4CCN(c5ccccc5)C4)C[C@@H]3C(=O)O)c2c1 (stereo partly shown)
Output line: 0.30

Input line: Fill in log10 MIC for record COc1ccc2nccc([C@H](O)CC[C@@H]3CCN(C4CC(c5cccc(F)c5)C4)C[C@@H]3C(=O)O)c2c1 (stereo partly shown)
Output line: -0.60

Input line: Specify log10 MIC for O=C(O)[C@H]1CN(C2CC(c3cc(F)ccc3F)C2)CC[C@H]1CCC(O)c1c(F)cnc2ccc(O)nc12 (mixture of isomers) and stop.
Output line: 0.30

Input line: Answer with the recorded log10 MIC of COc1ccc2nccc(C(O)CC[C@@H]3CCN(C4CC5(CCCCC5)C4)C[C@@H]3C(=O)O)c2c1 (stereo partly shown) only.
Output line: -0.30

Input line: Note down log10 MIC recorded for COc1ccc2nccc(C(O)CC[C@@H]3CCN(C4CC(c5c(C)cccc5C)C4)C[C@@H]3C(=O)O)c2c1 (stereo partly shown)
Output line: 0.00

Input line: Please indicate log10 MIC recorded for COc1ccc2ccnc(CCCC3(C(=O)O)CCN(C4CC(c5ccccc5)C4)CC3)c2c1 (stereo not shown)
Output line: 0.00

Input line: Assign log10 MIC to the following record: CNC(CC[C@@H]1CCN(C2CC(c3ccccc3)C2)C[C@@H]1C(=O)O)c1ccnc2ccc(OC)cc12 (stereo partly shown)
Output line: 0.60

Input line: Give log10 MIC for COc1ccc2ncc(Cl)c(CCNC3(C(=O)O)CCCN(CC4CC4c4cc(F)ccc4F)CC3)c2c1 (stereo not shown)
Output line: -0.60

----------
test system: Staph aureus 2811; assay: MIC, microtiter broth dilution (CLSI M7-A7), Assay 1, Table 12 column D, no serum; assay type: cell-based, Staphylococcus aureus; details: Staph aureus 2811, Assay 1, no serum
assay-endpoint: MIC, column D

# compound, MIC, column D
records = [
    ("COc1ccc2ncc(Cl)c(C(O)CC[C@@H]3CCN(C4CC(c5cc(F)ccc5F)C4)C[C@@H]3C(=O)O)c2c1 (stereo partly drawn) [Example 209]", "<0.0625 µg/mL"),
]

Input line: Using Staph aureus 2811 as the test system, report measured MIC, column D of COc1ccc2ncc(F)c(CCCC3(C(=O)O)CCN(C4CC(c5c(F)cccc5F)C4)C3)c2c1 (stereo not drawn) [Example 181] .
Output line: <0.0625 µg/mL

----------
system: Staph aureus 2811; experiment: MIC, microtiter broth dilution (CLSI M7-A7), Assay 1, Table 12 column D, no serum; type: cell-based, Staphylococcus aureus; conditions: Staph aureus 2811, Assay 1, no serum
assay-endpoint: MIC, column D

# compound, assay-system, MIC, column D
measured = [
    ("COc1ccc2nccc(C(O)CC[C@@H]3CCN(C4CC(O)(c5ccccc5)C4)C[C@@H]3C(=O)O)c2c1 (mixture of isomers) [Example 95]", "Staph aureus 2811", ">64 µg/mL"),
    ("COc1ccc2ncc(F)c(C(O)CC[C@@H]3CCN(C4CC(c5c(F)cccc5F)C4)C[C@@H]3C(=O)O)c2c1 (single isomer, unassigned) [Example 19]", "Staph aureus 2811", "<=.0625 μg/ml"),
    ("COc1ccc2nccc(C(O)CC[C@@H]3CCN(C4CN(Cc5ccccn5)C4)C[C@@H]3C(=O)O)c2c1 (stereo partly shown) [Example 127]", "Staph aureus 2811", ">64 µg/mL"),
    ("COc1ccc2ncc(Cl)c(C(O)CC[C@@H]3CCN(C4CC(c5ccccc5)C4)C[C@@H]3C(=O)O)c2c1 (stereo partly shown) [Example 211]", "Staph aureus 2811", "<0.0625 µg/mL"),
    ("COc1ccc2nccc(C(F)CC[C@@H]3CCN(C4CC(c5ccccc5)C4)C[C@@H]3C(=O)O)c2c1 (stereo partly shown) [Example 134]", "Staph aureus 2811", "<=.0625 μg/ml"),
    ("COc1ccc2ncc(Cl)c(C(O)CC[C@@H]3CCN(C4CC(c5ccccc5)C4)C[C@@H]3C(=O)O)c2c1 (stereo partly shown) [Example 212]", "Staph aureus 2811", "<0.0625 µg/mL"),
]

Now consider a different compound.
Input line: Return value of MIC, column D for input COc1ccc2nccc([C@@H](O)CC[C@@H]3CCN(C4CC(c5c(F)cccc5F)C4C)C[C@@H]3C(=O)O)c2c1 (stereo partly shown) [Example 67] , no commentary.
Output line: <=.0625 μg/ml

----------
test system: Staph aureus 1146; assay: MIC, microtiter broth dilution (CLSI M7-A7), Assay 1, Table 12 column B, no serum; format: cell-based, Staphylococcus aureus; settings: Staphylococcus aureus, 1146, Staph aureus 1146, Assay 1, no serum
Below: a set of entries, each annotated with reported MIC.

# compound, recorded-result
rows = [
    ("COc1ccc2ncc(F)c(CCCC3(C(=O)O)CCN(C4CC(c5c(F)cccc5F)C4)C3)c2c1 (stereo not drawn)", "< 0.0625 µg/mL"),
    ("COc1ccc2nccc([C@@H](O)CC[C@@H]3CCN(C4CC(c5ccccc5F)C4)C[C@@H]3C(=O)O)c2c1 (stereo partly drawn)", "< 0.0625 µg/mL"),
]

Continue with the compound presented below.
Input line: Return MIC for the following compound: COc1ccc2nccc([C@@H](O)CC[C@@H]3CCN(C4CC(c5c(F)cccc5Cl)C4)C[C@@H]3C(=O)O)c2c1 (stereo partly drawn)
Output line: ≤ 0.0625 µg/mL
